TEST_SYSTEM: Recombinant human HDAC10 (Homo sapiens, UniProt Q969S8)
Construct: purchased BPS Biosciences
Sequence (Q969S8 whole entry): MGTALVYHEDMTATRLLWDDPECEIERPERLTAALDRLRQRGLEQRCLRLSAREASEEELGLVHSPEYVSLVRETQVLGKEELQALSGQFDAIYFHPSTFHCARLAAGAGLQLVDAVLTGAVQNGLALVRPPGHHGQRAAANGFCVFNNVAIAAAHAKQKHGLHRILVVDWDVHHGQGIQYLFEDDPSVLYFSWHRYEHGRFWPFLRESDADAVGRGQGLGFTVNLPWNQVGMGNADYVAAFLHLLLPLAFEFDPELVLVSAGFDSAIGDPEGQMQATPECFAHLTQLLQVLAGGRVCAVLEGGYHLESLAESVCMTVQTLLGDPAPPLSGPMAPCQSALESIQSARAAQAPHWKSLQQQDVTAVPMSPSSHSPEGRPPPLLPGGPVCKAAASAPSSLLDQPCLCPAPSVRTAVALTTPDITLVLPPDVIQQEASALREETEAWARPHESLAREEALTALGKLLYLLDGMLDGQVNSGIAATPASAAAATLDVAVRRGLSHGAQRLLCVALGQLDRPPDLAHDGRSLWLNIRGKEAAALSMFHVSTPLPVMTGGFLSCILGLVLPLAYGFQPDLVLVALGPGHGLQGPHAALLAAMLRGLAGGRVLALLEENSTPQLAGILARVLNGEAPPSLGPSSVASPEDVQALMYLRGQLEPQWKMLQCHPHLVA
ASSAY_SUMMARY: HDAC inhibitory assay, HDAC10 (Boc-Lys(Ac)-AMC substrate)
Assay type: biochemical
MEASUREMENT_SETUP: test concentration not given; average of triplicate
READOUT_KIND: HDAC 10 inhibitory activity (%)
Answers are plain numbers, in %.

>>> print(df.to_string())
                         structure_notation                 readout_kind  number
0  O=C(NCC(c1ccccc1)c1ccccc1)c1coc(-c2ccccc2O)n1  HDAC 10 inhibitory activity    35.7
1  O=C(O)c1ccc(CNC(=O)c2coc(-c3ccccc3O)n2)cc1  HDAC 10 inhibitory activity    47.2
2  O=C(NCCC(c1ccccc1)c1ccccc1)c1coc(-c2ccccc2O)n1  HDAC 10 inhibitory activity    69.8

For every item in the list below, what is its measured HDAC 10 inhibitory activity?
1. O=C(NCCCCN1C(=O)c2ccccc2C1=O)c1coc(-c2ccccc2O)n1
2. O=C(Nc1ccccc1)c1coc(-c2ccccc2O)n1
3. O=C(NCCCCNC(=S)NCCC(c1ccccc1)c1ccccc1)c1coc(-c2ccccc2O)n1
4. O=C(NCCc1c[nH]c2ccccc12)c1coc(-c2ccccc2O)n1
5. O=C(NCc1cccc2ccccc12)c1coc(-c2ccccc2O)n1
6. O=C(NCc1ccc(-c2ccccc2)cc1)c1coc(-c2ccccc2O)n1
7. O=C(Nc1ccc(-c2ccccc2)cc1)c1coc(-c2ccccc2O)n1

[32.1, 48.8, 91.2, 44.8, 44.5, 48.7, 58.6]

// provenance: patent US10000474B2
